B1: HNF4A (parent)
chain: RFSRQCVVDKDKRNQCRYCRLKKC

- Variants of: B1
- protocol.summary: protein stability index of a GFP-peptide fusion (GPS, HEK-293T) (PSI 1-6); higher = more stable;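 note: lentivirally expressed fusions sorted by FACS into six bins by GFP to DsRed ratio, PSI derived from sequencing read proportions per bin multiplied by bin number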
- assay.conditions: c terminus: a fixed tail appended
Each entry falls in a class defined on protein stability index; the bands are interval 1 (below 2), interval 2 (2 to below 3), interval 3 (3 or more)

Check out these entries, answers already filled in.
# changes, class.label
rows = [
    ("R17F", "interval 2"),
    ("N14H", "interval 3"),
    ("R1V", "interval 1"),
    ("V7T", "interval 2"),
]

# classify by protein stability index band: V8N
interval 1

Lab note: sort Y18A into the matching protein stability index band.
interval 2
